Assay: logP and logD values water/cyclohexane
Format: physicochemical
Conditions: pH 7.4, water/cyclohexane; read-out: logD value at pH 7.4 water/cyclohexane
Recorded measurements of logD hydrocarbon water, one per entry
# output: bare number, no unit

CCCC(=O)O[C@H]1CC[C@](O)(c2cccc(OC)c2)[C@@H](CN(C)C)C1 (racemic)    0.946

Now let's try a different one.
Tell me the measured logD hydrocarbon water of COc1cccc([C@@]2(O)CC[C@H](O)C[C@@H]2CN(C)C)c1 (racemic) , please.
-2.3

###

Test: logP and logD values water/octanol
Format: physicochemical
Conditions: water/octanol
Parameter Measured: logP

COc1cccc([C@@]2(O)CC[C@H](O)C[C@@H]2CN(C)C)c1 (racemic)    1.1

Tell me the measured logP of CCCC(=O)O[C@H]1CC[C@](O)(c2cccc(OC)c2)[C@@H](CN(C)C)C1 (racemic) , please.
2.9

###

Experiment: logP and logD values water/octanol
Type: physicochemical
Settings: pH 7.4, water/octanol
Parameter Measured: logD

CCCC(=O)O[C@H]1CC[C@](O)(c2cccc(OC)c2)[C@@H](CN(C)C)C1 (racemic) [Compound 1]    1.48

Now let's try a different one.
Tell me the measured logD of COc1cccc([C@@]2(O)CC[C@H](O)C[C@@H]2CN(C)C)c1 (racemic) [Compound 2] , please.
-0.564

Attribution: patent US7168937B2
